Reported Hill coefficient is given for each of the following molecules.
testedTarget: UniProt P19327
Sequence (whole entry): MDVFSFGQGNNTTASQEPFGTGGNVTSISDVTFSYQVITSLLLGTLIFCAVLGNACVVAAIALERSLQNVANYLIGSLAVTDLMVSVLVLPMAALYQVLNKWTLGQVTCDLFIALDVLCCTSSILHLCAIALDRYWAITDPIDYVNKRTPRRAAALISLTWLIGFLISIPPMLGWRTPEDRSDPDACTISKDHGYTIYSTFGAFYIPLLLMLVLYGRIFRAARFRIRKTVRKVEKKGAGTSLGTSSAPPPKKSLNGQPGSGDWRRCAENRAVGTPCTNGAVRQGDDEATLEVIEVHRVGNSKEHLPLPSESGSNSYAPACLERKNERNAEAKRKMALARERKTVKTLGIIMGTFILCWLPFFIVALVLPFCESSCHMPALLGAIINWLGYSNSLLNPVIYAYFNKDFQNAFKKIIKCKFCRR
experimentNotes: Binding affinity at [3H]8-OH-DPAT-Labeled 5-hydroxytryptamine 1A receptor sites in rat brain hippocampal membranes expressed as Hill values
Format: cell membranes
When you answer, write just the number.

molecule	Hill coefficient
COc1cccc2c1CC(N(C)Cc1ccccc1)CC2 (stereo not given)	0.91

Could you share which Hill coefficient value was measured for CCCN(CCC)C1CCc2cccc(OC)c2C1 (stereo not given) ?
0.78

Could you share which Hill coefficient value was measured for COc1cccc2c1CC(NCCCCc1ccccc1)CC2 (stereo not given) ?
0.92

Could you share which Hill coefficient value was measured for CCCNC1CCc2ccccc2C1 (stereo not given) ?
0.74

Could you share which Hill coefficient value was measured for COc1cccc2c1CC(N(C)CCCc1ccccc1)CC2 (stereo not given) ?
0.94

Could you share which Hill coefficient value was measured for COc1cccc2c1CC(N(C)CCc1ccccc1)CC2 (stereo not given) ?
0.9

Could you share which Hill coefficient value was measured for c1ccc(CCCNC2CCc3ccccc3C2)cc1 (stereo not given) ?
1.06

Could you share which Hill coefficient value was measured for CCCNC1CCc2cccc(OC)c2C1 (stereo not given) ?
0.8

====

Reported pKi is given for each of the following compounds.
testedTarget: 5-hydroxytryptamine receptor 1A (Rattus norvegicus)
Sequence (P19327 whole entry): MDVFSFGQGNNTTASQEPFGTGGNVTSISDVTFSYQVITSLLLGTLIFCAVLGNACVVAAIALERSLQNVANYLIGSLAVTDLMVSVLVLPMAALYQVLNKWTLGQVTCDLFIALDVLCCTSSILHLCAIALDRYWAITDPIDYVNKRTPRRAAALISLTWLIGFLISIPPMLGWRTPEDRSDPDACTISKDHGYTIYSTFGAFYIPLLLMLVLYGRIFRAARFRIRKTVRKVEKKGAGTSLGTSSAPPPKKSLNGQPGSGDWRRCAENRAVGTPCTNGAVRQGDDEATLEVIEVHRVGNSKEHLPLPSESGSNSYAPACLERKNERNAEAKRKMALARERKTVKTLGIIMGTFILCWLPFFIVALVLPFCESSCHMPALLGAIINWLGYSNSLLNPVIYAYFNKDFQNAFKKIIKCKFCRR
The quantity pKi is defined as the negative base-10 logarithm of the molar concentration.

Some entries whose results are on file:
compound	testedTarget	resultNumber
COc1cccc2c1CC(NCCCc1ccccc1)CC2 (stereo not drawn)	5-hydroxytryptamine receptor 1A (Rattus norvegicus)	8.60
COc1cccc2c1CC(N(C)Cc1ccccc1)CC2 (stereo not drawn)	5-hydroxytryptamine receptor 1A (Rattus norvegicus)	7.11
CCCNC1CCc2ccccc2C1 (stereo not drawn)	5-hydroxytryptamine receptor 1A (Rattus norvegicus)	7.72
COc1cccc2c1CC(N)CC2 (stereo not drawn)	5-hydroxytryptamine receptor 1A (Rattus norvegicus)	7.28

Could you share which pKi value was measured for COc1cccc2c1CC(NCCc1ccccc1)CC2 (stereo not drawn) ?
7.36

Could you share which pKi value was measured for c1ccc(CCCNC2CCc3cccc(OCc4ccccc4)c3C2)cc1 (stereo not drawn) ?
8.00

Could you share which pKi value was measured for COc1cccc2c1CC(NCCCCc1ccccc1)CC2 (stereo not drawn) ?
8.25

Could you share which pKi value was measured for Oc1cccc2c1CC(NCCCc1ccccc1)CC2 (stereo not drawn) ?
8.72

Could you share which pKi value was measured for c1ccc(CCCNC2CCc3ccccc3C2)cc1 (stereo not drawn) ?
7.89
